Each recorded value in this set is attributed to patent US20230257347A1.

Task for the reader: assign each of the following compounds its reported pEC50.
target: 5-Hydroxytryptamine (Serotonin) Receptor 1A (5-HT1A) (Homo sapiens, UniProt P08908); assay: cAMP secondary messenger assay, 5-HT1A; assay type: cell-based
Sequence (P08908 whole entry): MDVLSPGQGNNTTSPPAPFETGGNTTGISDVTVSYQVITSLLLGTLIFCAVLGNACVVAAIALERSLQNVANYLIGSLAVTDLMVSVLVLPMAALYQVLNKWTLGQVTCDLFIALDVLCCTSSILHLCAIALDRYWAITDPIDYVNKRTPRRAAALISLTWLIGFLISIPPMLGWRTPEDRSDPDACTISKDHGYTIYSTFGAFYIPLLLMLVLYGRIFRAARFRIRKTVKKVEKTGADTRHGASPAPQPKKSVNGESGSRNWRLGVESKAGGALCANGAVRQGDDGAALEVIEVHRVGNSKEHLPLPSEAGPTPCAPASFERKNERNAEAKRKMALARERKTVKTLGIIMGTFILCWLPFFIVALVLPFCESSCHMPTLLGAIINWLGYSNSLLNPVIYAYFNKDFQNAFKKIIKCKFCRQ
pEC50: −log10 of the molar value. Structures can show the parent of a compound that is named as a salt.

Prompt: Which pEC50 value belongs to CNC(C)C(=O)c1c[nH]c2ccc(Br)cc12 (stereo not drawn) [BK-5Br-NM-AMT, hydrochloride] ?
Completion: < 5.00

Prompt: Can you share its pEC50? I mean this compound: CNC(C)C(=O)c1c[nH]c2ccc(F)cc12 (stereo not drawn) [BK-5F-NM-AMT, hydrochloride]
Completion: < 5.00

Prompt: Look up pEC50 for this compound: CNC(C)C(=O)c1c[nH]c2ccc(Cl)cc12 (stereo not drawn) [BK-5Cl-NM-AMT, hydrochloride]
Completion: < 5.00

====

For each record, write down the corresponding pIC50.
target: Monoamine oxidase type A (MAOA) (Homo sapiens, UniProt P21397); construct: purchased Sigma; test: Enzymatic assay, MAOA (kynuramine substrate); type: biochemical
Sequence (P21397 whole entry): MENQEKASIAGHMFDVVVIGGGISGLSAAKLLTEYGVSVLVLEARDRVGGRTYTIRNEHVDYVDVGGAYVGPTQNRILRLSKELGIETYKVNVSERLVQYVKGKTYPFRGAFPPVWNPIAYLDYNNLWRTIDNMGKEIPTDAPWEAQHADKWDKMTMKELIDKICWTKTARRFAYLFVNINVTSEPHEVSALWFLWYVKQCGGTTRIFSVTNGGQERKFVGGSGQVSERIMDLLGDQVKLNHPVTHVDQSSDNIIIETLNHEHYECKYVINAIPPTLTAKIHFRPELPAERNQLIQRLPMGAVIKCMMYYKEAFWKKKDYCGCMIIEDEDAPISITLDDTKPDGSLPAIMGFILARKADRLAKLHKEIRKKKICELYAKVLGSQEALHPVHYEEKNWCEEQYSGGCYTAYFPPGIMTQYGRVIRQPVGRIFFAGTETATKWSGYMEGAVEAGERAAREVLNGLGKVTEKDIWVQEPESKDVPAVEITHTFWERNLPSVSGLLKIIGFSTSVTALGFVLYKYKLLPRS
pIC50: −log10 of the molar value. Structures can show the parent of a compound that is named as a salt.

Prompt: I would be grateful if you could share the reported pIC50 for CNC(C)C(=O)c1c[nH]c2ccc(F)cc12 (stereo not drawn) [BK-5F-NM-AMT, hydrochloride] .
Completion: < 5.00

Prompt: # lookup: pIC50 of CNC(C)C(=O)c1c[nH]c2ccc(Cl)cc12 (stereo not drawn) [BK-5Cl-NM-AMT, hydrochloride]
Completion: < 5.00

Prompt: Would you kindly share the measured pIC50 for CCC(N)C(=O)c1c[nH]c2ccc(F)cc12 (stereo not drawn) ?
Completion: < 4.52

Prompt: Please give the measured pIC50 for this compound: CNC(C)C(=O)c1c[nH]c2ccc(Br)cc12 (stereo not drawn) [BK-5Br-NM-AMT, hydrochloride]
Completion: < 5.00

Prompt: // lookup pIC50 for CCC(N)Cc1c[nH]c2ccc(F)cc12 (stereo not drawn) [1-(5-fluoro-1H-indol-3-yl)butan-2-amine, reference compound]
Completion: 5.61

Prompt: Query (compound): CNC(C)Cc1c[nH]c2ccc(F)cc12 (stereo not drawn) [reference compound] ; field requested: pIC50
Completion: 6.35

====

For each record, write down the corresponding IC50.
molecular target: Arginine Vasopressin Receptor 1A (AVPR1A) (Homo sapiens, UniProt P37288); assay: Calcium flux assay, AVPR1A
Sequence (P37288 whole entry): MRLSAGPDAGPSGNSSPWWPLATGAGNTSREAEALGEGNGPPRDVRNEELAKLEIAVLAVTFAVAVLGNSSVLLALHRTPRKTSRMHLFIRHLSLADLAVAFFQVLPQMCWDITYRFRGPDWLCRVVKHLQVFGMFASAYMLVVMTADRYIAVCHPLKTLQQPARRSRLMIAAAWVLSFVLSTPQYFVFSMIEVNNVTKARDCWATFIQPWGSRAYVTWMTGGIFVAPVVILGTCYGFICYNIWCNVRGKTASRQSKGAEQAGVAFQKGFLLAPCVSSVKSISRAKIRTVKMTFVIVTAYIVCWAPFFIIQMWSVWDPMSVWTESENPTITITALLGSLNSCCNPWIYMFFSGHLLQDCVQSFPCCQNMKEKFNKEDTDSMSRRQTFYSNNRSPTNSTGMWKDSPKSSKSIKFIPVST
Where a name gives a salt, the structure may show the parent alone.

Prompt: Lab note: need IC50 for CNC(C)C(=O)c1c[nH]c2ccc(Cl)cc12 (stereo not drawn) [BK-5Cl-NM-AMT, hydrochloride] on Arginine Vasopressin Receptor 1A (AVPR1A) (Homo sapiens, UniProt P37288), anyone have it?
Completion: > 10 µM

Prompt: Any idea what IC50 came out for CNC(C)C(=O)c1c[nH]c2ccc(Br)cc12 (stereo not drawn) [BK-5Br-NM-AMT, hydrochloride] on Arginine Vasopressin Receptor 1A (AVPR1A) (Homo sapiens, UniProt P37288)?
Completion: > 10 µM

Prompt: So what IC50 did CNC(C)C(=O)c1c[nH]c2ccc(F)cc12 (stereo not drawn) [BK-5F-NM-AMT, hydrochloride] get with Arginine Vasopressin Receptor 1A (AVPR1A) (Homo sapiens, UniProt P37288)?
Completion: > 10 µM
